Below is a list of entries, each paired with its recorded Bliss excess value.
Tested on: EFM-19 (Breast Carcinoma)
Test: Bliss excess, mean over the matrix (fraction); higher = more synergy
API doc: respond with a numeric literal and nothing else, no unit.

Prompt: Note Bliss excess for the compound shown: NC1(C(=O)N[C@@H](CCO)c2ccc(Cl)cc2)CCN(c2ncnc3[nH]ccc23)CC1 [Capivasertib] + C[C@@H]1COCCN1C2=NC(=NC(=C2)C3(CC3)[S@](=N)(=O)C)C4=C5C=CNC5=NC=C4 [AZD6738] (first compound max 10 µM, 7x7, partner max 10 µM)
Completion: -0.0072

Prompt: Note Bliss excess for the compound shown: CN(CCO)CC[C@H](CSc1ccccc1)Nc1ccc(S(=O)(=O)NC(=O)c2ccc(N3CCC([C@@H](O)c4ccccc4-c4ccc(Cl)cc4)CC3)cc2)cc1S(=O)(=O)C(F)(F)F [AZD4320] + C=CCn1c(=O)c2cnc(Nc3ccc(N4CCN(C)CC4)cc3)nc2n1-c1cccc(C(C)(C)O)n1 [AZD1775] (first compound max 1 µM, partner max 1 µM)
Completion: 0.0433

Prompt: Note Bliss excess for the compound shown: Cc1c2c(nn1C)CSCc1cc(n(C)n1)CSc1cc(c3ccccc3c1)OCCCc1c(C(=O)O)n(C)c3c-2c(Cl)ccc13 [AZD5991] + C=CCn1c(=O)c2cnc(Nc3ccc(N4CCN(C)CC4)cc3)nc2n1-c1cccc(C(C)(C)O)n1 [AZD1775] (first compound max 1 µM, partner max 1 µM)
Completion: 0.054

* * *

Tested on: Ca9-22 (Head and Neck Carcinoma)
Assay: combination Emax (second highest fraction inhibited in the dose matrix, 72 h); higher = more inhibition; extreme values may be limits of the assay
Below is a list of entries, each paired with its recorded combination Emax value.

Prompt: Note combination Emax for the compound shown: CS(=O)(=O)CCNCc1ccc(-c2ccc3ncnc(Nc4ccc(OCc5cccc(F)c5)c(Cl)c4)c3c2)o1 [Lapatinib] + C[C@@H](Oc1cc(-c2cnn(C3CCNCC3)c2)cnc1N)c1c(Cl)ccc(F)c1Cl [Crizotinib] (first compound max 10 µM, 7x7, partner max 10 µM)
Completion: 0.987

Prompt: Note combination Emax for the compound shown: CCc1c2c(nc3ccc(O)cc13)-c1cc3c(c(=O)n1C2)COC(=O)[C@]3(O)CC [SN-38] + CN(C)CCCOc1ccc(-c2ccc3ncc4c(c3c2)n(C2CCOCC2)c(=O)n4C)cn1 [AZD0156] (first compound max 0.3 µM, 7x7, partner max 1 µM)
Completion: 0.914

Prompt: Note combination Emax for the compound shown: COc1nnc2ccc(N3CCC(c4ccc(OCCN5CCN(C)C(=O)[C@H]5C)cc4)CC3)nn12 [AZD5153] + C=CCn1c(=O)c2cnc(Nc3ccc(N4CCN(C)CC4)cc3)nc2n1-c1cccc(C(C)(C)O)n1 [AZD1775] (first compound max 1 µM, partner max 1 µM)
Completion: 0.672

* * *

Tested on: VA-ES-BJ (Other Solid Carcinomas)
Assay: Bliss excess, mean over the matrix (fraction); higher = more synergy
Returns one of 1.0 or 0.0; 1.0 when Bliss excess is >= -0.03.

Compound	Group label
COc1nnc2ccc(N3CCC(c4ccc(OCCN5CCN(C)C(=O)[C@H]5C)cc4)CC3)nn12 [AZD5153] + C[C@@H]1COCCN1C2=NC(=NC(=C2)C3(CC3)[S@](=N)(=O)C)C4=C5C=CNC5=NC=C4 [AZD6738] (first compound max 1 µM, 7x7, partner max 10 µM)	1.0
CC1(C)CCC(CN2CCN(c3ccc(C(=O)NS(=O)(=O)c4ccc(NCC5CCOCC5)c([N+](=O)[O-])c4)c(Oc4cnc5[nH]ccc5c4)c3)CC2)=C(c2ccc(Cl)cc2)C1 [Venetoclax] + C1CN(CCC1(C(=O)N[C@@H](CCO)C2=CC=C(C=C2)Cl)N)C3=NC=NC4=C3C=CN4 [Capivasertib] (first compound max 1 µM, 7x7, partner max 3 µM)	0.0
C=CCn1c(=O)c2cnc(Nc3ccc(N4CCN(C)CC4)cc3)nc2n1-c1cccc(C(C)(C)O)n1 [AZD1775] + O=C(c1cc(Cc2n[nH]c(=O)c3ccccc23)ccc1F)N1CCN(C(=O)C2CC2)CC1 [Olaparib] (first compound max 1 µM, partner max 10 µM)	0.0

Prompt: Is reported Bliss excess greater than or equal to -0.03 here: COc1cc2ncnc(Nc3ccc(F)c(Cl)c3)c2cc1OCCCN1CCOCC1 [Gefitinib] + CC(C)n1c(=O)n(C)c2cnc3cc(F)c(-c4ccc(OCCCN5CCCCC5)nc4)cc3c21 [AZD1390] (first compound max 10 µM, 7x7, partner max 0.3 µM)
Completion: 0.0

Prompt: Is reported Bliss excess greater than or equal to -0.03 here: Cc1c2c(nn1C)CSCc1cc(n(C)n1)CSc1cc(c3ccccc3c1)OCCCc1c(C(=O)O)n(C)c3c-2c(Cl)ccc13 [AZD5991] + C[C@@H]1COCCN1C2=NC(=NC(=C2)C3(CC3)[S@](=N)(=O)C)C4=C5C=CNC5=NC=C4 [AZD6738] (first compound max 1 µM, 7x7, partner max 10 µM)
Completion: 1.0

Prompt: Is reported Bliss excess greater than or equal to -0.03 here: CCc1c2c(nc3ccc(O)cc13)-c1cc3c(c(=O)n1C2)COC(=O)[C@]3(O)CC [SN-38] + CN(C)CCCOc1ccc(-c2ccc3ncc4c(c3c2)n(C2CCOCC2)c(=O)n4C)cn1 [AZD0156] (first compound max 0.3 µM, 7x7, partner max 1 µM)
Completion: 1.0

Prompt: Is reported Bliss excess greater than or equal to -0.03 here: C[C@@H](c1ccc2nccn2c1)n1nnc2ncc(-c3cnn(C)c3)nc21 [Savolitinib] + CN(CC[C@H](CSC1=CC=CC=C1)NC2=C(C=C(C=C2)S(=O)(=O)NC(=O)C3=CC=C(C=C3)N4CCC(CC4)[C@H](C5=CC=CC=C5C6=CC=C(C=C6)Cl)O)S(=O)(=O)C(F)(F)F)CCO [AZD4320] (first compound max 1 µM, 7x7, partner max 1 µM)
Completion: 1.0

* * *

Tested on: TK10 (Kidney Carcinoma)
Experiment: combination Emax (second highest fraction inhibited in the dose matrix, 72 h); higher = more inhibition; extreme values may be limits of the assay
Below is a list of entries, each paired with its recorded combination Emax value.

Molecule	combination Emax
COc1cccc(OCCCN)c1-c1cc(Nc2cnc(C#N)cn2)n[nH]1 [Prexasertib] + C[C@@H]1COCCN1C2=NC(=NC(=C2)C3(CC3)[S@](=N)(=O)C)C4=C5C=CNC5=NC=C4 [AZD6738] (first compound max 1 µM, 7x7, partner max 10 µM)	0.686

Prompt: Note combination Emax for the molecule shown: NC1(C(=O)N[C@@H](CCO)c2ccc(Cl)cc2)CCN(c2ncnc3[nH]ccc23)CC1 [Capivasertib] + C[C@@H]1COCCN1C2=NC(=NC(=C2)C3(CC3)[S@](=N)(=O)C)C4=C5C=CNC5=NC=C4 [AZD6738] (first compound max 10 µM, 7x7, partner max 10 µM)
Completion: 0.605

Prompt: Note combination Emax for the molecule shown: CS(=O)(=O)CCNCc1ccc(-c2ccc3ncnc(Nc4ccc(OCc5cccc(F)c5)c(Cl)c4)c3c2)o1 [Lapatinib] + NC1(c2ccc(-c3nc4ccn5c(=O)[nH]nc5c4cc3-c3ccccc3)cc2)CCC1 [MK-2206] (first compound max 10 µM, 7x7, partner max 10 µM)
Completion: 0.698

Prompt: Note combination Emax for the molecule shown: Cc1c2c(nn1C)CSCc1cc(n(C)n1)CSc1cc(c3ccccc3c1)OCCCc1c(C(=O)O)n(C)c3c-2c(Cl)ccc13 [AZD5991] + CCN(CCO)CCCOc1ccc2c(Nc3cc(CC(=O)Nc4cccc(F)c4)[nH]n3)ncnc2c1 [AZD2811] (first compound max 1 µM, 7x7, partner max 1 µM)
Completion: 0.228

* * *

Below is a list of entries, each paired with its recorded Bliss excess value.
Test system: Hs-766T (Pancreatic Carcinoma)
Assay: Bliss excess, mean over the matrix (fraction); higher = more synergy
API doc: respond with a numeric literal and nothing else, no unit.

Compound	Bliss excess
CC(=O)Nc1cccc(-n2c(=O)n(C3CC3)c(=O)c3c(Nc4ccc(I)cc4F)n(C)c(=O)c(C)c32)c1 [Trametinib] + Cc1nc(-c2cn3c(n2)-c2ccc(-c4cnn(C(C)(C)C(N)=O)c4)cc2OCC3)n(C(C)C)n1 [Taselisib] (first compound max 1 µM, 7x7, partner max 10 µM)	0.0113

Pending compound:
Prompt: Note Bliss excess for the compound shown: CN(C)CCCOc1ccc(-c2ccc3ncc4c(c3c2)n(C2CCOCC2)c(=O)n4C)cn1 [AZD0156] + CCN(CCO)CCCOc1ccc2c(Nc3cc(CC(=O)Nc4cccc(F)c4)[nH]n3)ncnc2c1 [AZD2811] (first compound max 1 µM, 7x7, partner max 1 µM)
Completion: -0.0411

* * *

Tested on: YH-13 (Glioblastoma)
Experiment: combination Emax (second highest fraction inhibited in the dose matrix, 72 h); higher = more inhibition; extreme values may be limits of the assay
Quantity kind: combination Emax
API doc: respond with a numeric literal and nothing else, no unit.

Prompt: Note combination Emax for the compound shown: COc1cccc(OCCCN)c1-c1cc(Nc2cnc(C#N)cn2)n[nH]1 [Prexasertib] + CN(C)CCCOc1ccc(-c2ccc3ncc4c(c3c2)n(C2CCOCC2)c(=O)n4C)cn1 [AZD0156] (first compound max 1 µM, 7x7, partner max 1 µM)
Completion: 0.777

Prompt: Note combination Emax for the compound shown: COc1cccc(OCCCN)c1-c1cc(Nc2cnc(C#N)cn2)n[nH]1 [Prexasertib] + Cc1cc2ncnn2cc1Nc1ncc2c(n1)n(C1CCOCC1)c(=O)n2C [AZD7648] (first compound max 1 µM, 7x7, partner max 10 µM)
Completion: 0.869
